The measurements presented in this section are drawn from patent US5821219A.

- target-entity: novel mammalian opioid receptor (LC132, MSOR, OFQR) (Rattus norvegicus)
- Sequence (P35370 whole entry): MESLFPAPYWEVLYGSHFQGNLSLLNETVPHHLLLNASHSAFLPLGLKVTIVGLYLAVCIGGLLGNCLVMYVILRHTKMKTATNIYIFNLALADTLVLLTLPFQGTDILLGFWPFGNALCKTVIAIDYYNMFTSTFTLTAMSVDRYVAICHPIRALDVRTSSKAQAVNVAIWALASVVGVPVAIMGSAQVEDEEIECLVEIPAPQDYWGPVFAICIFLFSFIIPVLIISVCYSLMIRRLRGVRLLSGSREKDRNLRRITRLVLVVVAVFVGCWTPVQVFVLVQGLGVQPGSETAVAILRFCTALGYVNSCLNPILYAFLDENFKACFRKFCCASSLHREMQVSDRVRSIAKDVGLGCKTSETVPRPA
parameter-measured: Kd

Request: // map CCC(=O)C(CC(C)N(C)C)(c1ccccc1)c1ccccc1 (stereo not shown) to recorded Kd (system: novel mammalian opioid receptor (LC132, MSOR, OFQR) (Rattus norvegicus))
Result: ~0.1 nM
